assayed-system: Phospholipid hydroperoxide glutathione peroxidase GPX4 (Homo sapiens)
assay-method-text: Primary qHTS Assay for Inhibitors of Recombinant Selenoprotein Glutathione Peroxidase 4 (GPX4) (AID 1845192); also: nearly all actives have a fitted effect of over 65% in size
details: recombinant GPX4, GR-coupled NADPH fluorescence, 15 min; series mostly up to 50 µM
Inconclusive results are not listed. The source made the active and inactive calls. Calls follow the shape of the dose curve; as a rule, active = well fitted inhibition curve with a large enough effect; inconclusive = small, poorly fitted or top-dose-only effect; inactive = flat fitted curve, though single readings scatter.
Outcomes: active, inactive

>>> print(df.to_string())
                                    compound  category
 0  C[C@@H]1O[C@@H](O[C@@H]2C=C3CC[C@@H]4[C@H](CC[C@]5(C)[C@@H](c6ccc(=O)oc6)CC[C@]45O)[C@@]3(C)CC2)[C@H](O)[C@H](O)[C@H]1O  inactive
 1  N#Cc1nn(-c2c(Cl)cc(C(F)(F)F)cc2Cl)c(N)c1S(=O)C(F)(F)F (stereo not drawn)  inactive
 2  CCCCC1C(=O)NC(=O)N(C2CCCCC2)C1=O (stereo not drawn)  inactive
 3        Cc1ccc([N+](=O)[O-])[c]2c1[O][Hg]2  inactive
 4  CCOC(=O)c1cncn1C(C)c1ccccc1 (stereo not drawn)  inactive
 5       CCC(=O)C(CCN(C)C)(c1ccccc1)c1ccccc1  inactive
 6  CCN(CC)Cc1nccn1-c1ccc([N+](=O)[O-])cc1C(=O)c1ccccc1Cl  inactive
 7  O=C(CCCN1CCC(n2c(=O)[nH]c3ccccc32)CC1)c1ccc(F)cc1  inactive
 8        Oc1ccc([C@H]2CNCc3c2ccc(O)c3O)cc1O  inactive
 9  O=C1CN2CCOC2(c2ccccc2Cl)c2cc(Cl)ccc2N1 (stereo not drawn)  inactive
10                       COC(=O)C1=CCCN(C)C1  inactive
11  COc1ccc2c(C(=O)c3ccc(Cl)cc3)c(C)n(CC(=O)O)c2c1  inactive
12  Clc1ccc(CSC(Cn2ccnc2)c2ccc(Cl)cc2Cl)cc1 (stereo not drawn)  inactive
13  c1ccc2c(c1)Sc1ccccc1N2CC1CN2CCC1CC2 (stereo not drawn)  inactive
14                          NC(=O)CN1CCCC1=O  inactive
15  C#C[C@]1(O)C=C[C@H]2[C@@H]3CCC4=CC(=O)CC[C@@H]4[C@H]3CC[C@@]21CC  inactive
16                   Cc1cccc(Cc2cnc[nH]2)c1C  inactive
17  Clc1ccc(C(OCCN2CCCCC2)c2ccccc2)cc1 (stereo not drawn)  inactive
18        O=C(O)CCCCCCNC1c2ccccc2CCc2ccccc21  inactive
19  Cc1nnc2n1-c1sc(CCc3ccc(CC(C)C)cc3)cc1C(c1ccccc1Cl)=NC2C (stereo not drawn)    active
20      O=C(O)c1nn(Cc2ccc(Cl)cc2Cl)c2ccccc12  inactive
21  CCOC(=O)C1(c2ccccc2)CCN(CCc2ccc(N)cc2)CC1  inactive
22                COc1ccc(C(=O)N2CCCC2=O)cc1  inactive
